The values you see were collected from patent US8901317B2.

- TEST NAME: Ferric reducing antioxidant power (FRAP) assay
- ASSAY CONTEXT: 6 min; compound at 10 μM relative to ferrous sulfate
Lab note: cut-off is 20 µM. Strictly less in FRAP Value6 min (μM) M ± SD is met. Exactly 20 µM or more is not met.

> print(dat)
                                   compound  category
1  O=c1c(O)c(-c2ccc(O)c(O)c2)oc2cc(O)cc(O)c12 [Quercetin, reference compound]   not met
2  O=C(O)c1cc(O)c(O)c(O)c1 [Gallic acid, reference compound]   not met
3  O=C(Cc1c[nH]c2ccccc12)NCCc1c[nH]c2ccc(O)cc12       met
4  COc1ccc2[nH]cc(CCNC(=O)Cc3c[nH]c4ccccc34)c2c1       met
5  NCCc1c[nH]c2ccc(OC(=O)c3cc(O)c(O)c(O)c3)cc12   not met
6  O=C(NCCc1c[nH]c2ccc(O)cc12)c1cc(O)c(O)c(O)c1   not met
7  O=C1O[C@H]([C@@H](O)CO)C(O)=C1O [Ascorbic acid, reference compound]       met
8  COc1ccc2[nH]cc(CCNC(=O)c3cc(O)c(O)c(O)c3)c2c1       met
9  COc1ccc2[nH]cc(CCNC(=O)/C=C/c3ccc(O)cc3)c2c1       met

* * *

- TEST NAME: DPPH free radical scavenging assay
- ASSAY CONTEXT: concentration 30 μM (Table 3)
MEASURED ENDPOINT: Absorbance change (ΔA) at 30 min

> print(dat)
                                   molecule  meas.value
1  O=C(NCCc1c[nH]c2ccc(O)cc12)c1cc(O)c(O)c(O)c1 [Compound 3a]        0.34
2  COc1ccc2[nH]cc(CCNC(=O)c3cc(O)c(O)c(O)c3)c2c1 [Compound 3c]        0.24
3  O=C(NCCc1c[nH]c2ccccc12)c1cc(O)c(O)c(O)c1 [Compound 3b]        0.21
4  NCCc1c[nH]c2ccc(OC(=O)c3cc(O)c(O)c(O)c3)cc12 [Compound 4d]        0.27

* * *

- TEST NAME: Ferric reducing antioxidant power (FRAP) assay
- ASSAY CONTEXT: 6 min; compound at 10 μM relative to ferrous sulfate
Outcome: rule met for FRAP Value6 min (μM) M ± SD of at least 10 µM; rule not met for anything lower.

> print(dat)
                                   compound      category
1  NCCc1c[nH]c2ccc(OC(=O)CCCC(=O)NCCc3c[nH]c4ccc(O)cc34)cc12 [Compound 6c]      rule met
2  O=C(NCCc1c[nH]c2ccccc12)c1cc(O)c(O)c(O)c1 [Compound 3b]      rule met
3  NCCc1c[nH]c2ccc(O)cc12 [Serotonin, 5-hydroxytryptamine, reference compound]      rule met
4  O=C(/C=C/c1ccc(O)cc1)NCCc1c[nH]c2ccc(O)cc12 [Compound 2b]  rule not met
5  O=C(/C=C/c1ccc(O)cc1)NCCc1c[nH]c2ccccc12 [Compound 2e]  rule not met
6  O=C(Cc1c[nH]c2ccccc12)NCCc1c[nH]c2ccccc12 [Compound 2f]  rule not met

* * *

- TEST NAME: DPPH free radical scavenging assay
- ASSAY CONTEXT: concentration 80 μM (Table 3)
MEASURED ENDPOINT: Absorbance change (ΔA) at 30 min

> print(dat)
                            compound.string  meas.value
1  NCCc1c[nH]c2ccc(OC(=O)c3cc(O)c(O)c(O)c3)cc12        0.33
2  O=C(NCCc1c[nH]c2ccc(O)cc12)c1cc(O)c(O)c(O)c1        0.42
3  O=C(NCCc1c[nH]c2ccccc12)c1cc(O)c(O)c(O)c1        0.28
4  COc1ccc2[nH]cc(CCNC(=O)c3cc(O)c(O)c(O)c3)c2c1        0.31
